# target-or-test-system: the molecule itself
# assay-text: SEC

protein	binding result
mCP(H103A)(H107A), mS100A8/mS100A9(H103A)(H107A) (complex, murine) chain 1: MPSELEKALSNLIDVYHNYSNIQGNHHALYKNDFKKMVTTECPQFVQNINIENLFRELDINSDNAINFEEFLAMVIKVGVASHKDSHKE chain 2: ANKAPSQMERSITTIIDTFHQYSRKEGHPDTLSKKEFRQMVEAQLATFMKKEKRNEALINDIMEDLDTNQDNQLSFEECMMLMAKLIFACHEKLHENNPRGAGHSAGKGCGK	binds
mCP ∆His3Asp variant, mS100A8(H83A)(H87A)/mS100A9(H21A)(D31A) (complex, murine) chain 1: MPSELEKALSNLIDVYHNYSNIQGNHHALYKNDFKKMVTTECPQFVQNINIENLFRELDINSDNAINFEEFLAMVIKVGVASAKDSAKE chain 2: ANKAPSQMERSITTIIDTFAQYSRKEGHPATLSKKEFRQMVEAQLATFMKKEKRNEALINDIMEDLDTNQDNQLSFEECMMLMAKLIFACHEKLHENNPRGHGHSHGKGCGK	binds
mCP(H103A)(H105A), mS100A8/mS100A9(H103A)(H105A) (complex, murine) chain 1: MPSELEKALSNLIDVYHNYSNIQGNHHALYKNDFKKMVTTECPQFVQNINIENLFRELDINSDNAINFEEFLAMVIKVGVASHKDSHKE chain 2: ANKAPSQMERSITTIIDTFHQYSRKEGHPDTLSKKEFRQMVEAQLATFMKKEKRNEALINDIMEDLDTNQDNQLSFEECMMLMAKLIFACHEKLHENNPRGAGASHGKGCGK	binds
